Parameter: kon. Scope: all listed entries.
Biological target: T1, cyno pro-myostatin (cynomolgus monkey, Biotinylated for capture in the SPR assay (site not stated). The native form is a disulfide-linked homodimer, partly furin-cleaved; one chain is given.)
T1 construct: also called proGDF8 (cynomolgus); cynomolgus monkey pro-myostatin
Test: SPR Biacore 8K, biotin-antigen captured
Numeric answer only, unit M⁻¹ s⁻¹ assumed.

>  <binder>
Ab114 (antibody, human IgG4 S228P, kappa, V domains shown) VH: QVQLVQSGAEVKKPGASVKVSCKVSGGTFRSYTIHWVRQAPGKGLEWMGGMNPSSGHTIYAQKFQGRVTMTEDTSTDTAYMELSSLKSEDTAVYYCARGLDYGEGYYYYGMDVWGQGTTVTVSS VL: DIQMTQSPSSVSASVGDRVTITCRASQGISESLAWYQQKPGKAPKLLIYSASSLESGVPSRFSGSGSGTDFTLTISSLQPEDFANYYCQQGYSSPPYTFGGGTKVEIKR

>  <kon [M⁻¹ s⁻¹]>
3.49e+06

$$$$
>  <binder>
Ab102 (antibody, human IgG4 S228P, kappa, V domains shown) VH: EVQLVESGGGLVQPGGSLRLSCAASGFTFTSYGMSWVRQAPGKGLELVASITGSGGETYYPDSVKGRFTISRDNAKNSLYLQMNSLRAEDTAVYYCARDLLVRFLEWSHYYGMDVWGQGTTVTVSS VL: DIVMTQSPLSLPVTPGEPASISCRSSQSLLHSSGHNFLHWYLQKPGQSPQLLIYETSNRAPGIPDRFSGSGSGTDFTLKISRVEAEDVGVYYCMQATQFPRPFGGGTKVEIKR

>  <kon [M⁻¹ s⁻¹]>
6.8e+06

$$$$
>  <binder>
Ab107 (antibody, human IgG4 S228P, kappa, V domains shown) VH: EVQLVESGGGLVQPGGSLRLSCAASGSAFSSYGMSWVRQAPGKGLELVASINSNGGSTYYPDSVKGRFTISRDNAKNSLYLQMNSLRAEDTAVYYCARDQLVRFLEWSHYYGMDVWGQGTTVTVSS VL: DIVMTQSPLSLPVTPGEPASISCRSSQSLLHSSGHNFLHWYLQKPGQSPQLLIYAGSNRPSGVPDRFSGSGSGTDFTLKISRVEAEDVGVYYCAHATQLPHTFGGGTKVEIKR

>  <kon [M⁻¹ s⁻¹]>
5.85e+06

$$$$
>  <binder>
Ab106 (antibody, human IgG4 S228P, kappa, V domains shown) VH: EVQLVESGGGLVQPGGSLRLSCAASGSAFSSYGMSWVRQAPGKGLELVASINSNGGSTYYPDSVKGRFTISRDNAKNSLYLQMNSLRAEDTAVYYCARDLLVRFLEWAGYYGMDVWGQGTTVTVSS VL: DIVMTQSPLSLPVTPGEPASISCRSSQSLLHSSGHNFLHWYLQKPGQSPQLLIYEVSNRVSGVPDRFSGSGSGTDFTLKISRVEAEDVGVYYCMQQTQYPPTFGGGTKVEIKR

>  <kon [M⁻¹ s⁻¹]>
1.91e+06

$$$$

Kindly consider the entry below.
binder Ab103 (antibody, human IgG4 S228P, kappa, V domains shown) VH: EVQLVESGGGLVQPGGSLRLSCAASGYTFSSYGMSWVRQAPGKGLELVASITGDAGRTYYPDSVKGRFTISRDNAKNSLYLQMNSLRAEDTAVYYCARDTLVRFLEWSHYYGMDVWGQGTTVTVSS VL: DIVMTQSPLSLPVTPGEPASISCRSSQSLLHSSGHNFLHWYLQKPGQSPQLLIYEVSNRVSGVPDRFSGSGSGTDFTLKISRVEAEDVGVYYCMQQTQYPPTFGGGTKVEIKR , kon observed: 6.09e+06
